Recorded growth, one value per entry.
System: OVCAR-3 ovarian
Test: NCI-60 one-dose screen, 48 h (100 = growth as untreated, 0 = no growth, -100 = all killed)
Conditions: 10 µM unless noted
The panel holds about 83,000 compounds, 20% with a hit somewhere; the sample as a whole holds those more often.
Your answer is read as %, so omit the unit and give the number.

Examples with their reported growth follow.
Briefly, growth measured for `Cc1nn(-c2ccccc2)c(Oc2ccc(Cl)cc2)c1/C=N\N=c1/sc2ccccc2n1C` : 101

Briefly, growth measured for `COc1ccc(S(=O)(=O)NCCNc2nccc(-c3c(-c4cccc(F)c4)nc4sccn34)n2)cc1` : 49.1

Briefly, growth measured for `O=C(c1ccc(Nc2nccc(NCCCCNc3ccnc4cc(Cl)ccc34)n2)cc1)N1CCCCC1` : 36.6

Briefly, growth measured for `COc1cc(/C=C/C(=O)c2c(C)nc3ccccc3c2C)ccc1OCCCN1CCN(C(=O)c2ccco2)CC1` : 97.9

Turning now to a further record.
Briefly, growth measured for `Oc1ccc(CN2CCC(N3CCOCC3)CC2)c2cccnc12` : 29.9
